# measurement.notes: in vitro
# study.conditions: rat, gh3-tre-luc cells, AC50 (uM) modified / 1000, Tox21_110001=Tox21_301017; viability, 1 nM T3 present, 24 h
measurement.kind: CC50 at 24 h

# lookup: CC50 at 24 h of CC(C)=CC1C(C(=O)OCN2C(=O)C3=C(CCCC3)C2=O)C1(C)C (stereo not shown)
> 90 µM

###

For each record, write down the corresponding CC50 at 24 h.
# measurement.notes: in vitro
# study.conditions: rat, gh3-tre-luc cells, AC50 (uM) modified / 1000

>>> observed_measurement("CCCCCCCCCCCC(=O)OC[C@@H](O)[C@H]1OC[C@H](O)[C@H]1O [Sorbitan monododecanoate]")
"> 50 µM"

Hi, could you look up CC50 at 24 h for each item in my list?
1. Cc1nnc2n1-c1ccc(Cl)cc1C(c1ccccc1)=NC2
2. CCc1cccc(C)c1N
3. OCC(CO)(CO)COCC(CO)(CO)CO
4. O=C(C(=O)c1ccc(Br)cc1)c1ccc(Br)cc1

1: > 50 µM; 2: > 90 µM; 3: > 90 µM; 4: > 30 µM

###

# measurement.notes: in vitro
# study.conditions: rat, gh3-tre-luc cells, AC50 (uM) modified / 1000, Tox21_110001=Tox21_112016; viability, 1 nM T3 present, 24 h
measurement.kind: CC50 at 24 h

Query (compound): CC(C)(C)NCC(O)c1cc(Cl)c(N)c(Cl)c1 (stereo not shown) ; field requested: CC50 at 24 h
31.8 µM

###

For each record, write down the corresponding CC50 at 24 h.
# measurement.notes: in vitro
# study.conditions: rat, gh3-tre-luc cells, AC50 (uM) modified / 1000

>>> observed_measurement("COC(=O)c1ccc(OC)cc1 [Methyl 4-methoxybenzoate]")
"> 90 µM"

For every item in the list below, what is its measured CC50 at 24 h?
1. C/C=C\C/C=C/CCCCCCCCOC(C)=O [(9E,12Z)-9,12-Tetradecadien-1-ol acetate]
2. CCC(C)(C)c1ccc(O)cc1
3. CC(C)OC(=O)c1ccccc1 [Propan-2-yl benzoate]
4. c1ccc2c(c1)Sc1ccccc1N2CC1CN2CCC1CC2 (centres unmarked)

> 90 µM
> 90 µM
> 100 µM
7.76 µM

###

# System: GH3-TRE-Luc cell line
# study.conditions: read-out: AC50 (uM) modified / 1000; Tox21_110001=Tox21_202483; viability, 1 nM T3 present, 24 h
Where a name gives a salt, the structure may show the parent alone.
measurement.kind: CC50 (µM)
One number for each entry, in µM.

Could you tell me which CC50 is on file for COc1cccc2c1C(=O)c1c(O)c3c(c(O)c1C2=O)C[C@@](O)(C(=O)CO)C[C@@H]3O[C@H]1C[C@H](N)[C@H](O)[C@H](C)O1 [Adriamycin hydrochloride] ?
0.253

###

# measurement.notes: in vitro
# study.conditions: rat, gh3-tre-luc cells, AC50 (uM) modified / 1000
Counter-ions that a name gives are not always drawn.
Assign CC50 at 24 h to each entry below.

>>> observed_measurement("O=C(O)Cc1nn(Cc2ccc(Br)cc2F)c(=O)c2ccccc12")
"> 50 µM"
>>> observed_measurement("c1ccc(C2(c3ccccc3)CC2C2=NCCN2)cc1 (stereo not shown) [Cifenline succinate]")
"> 50 µM"
>>> observed_measurement("CCC(C)c1ccc(O)cc1 (stereo not shown)")
"61.9 µM"
>>> observed_measurement("O=C1OC(=O)c2c(Br)c(Br)c(Br)c(Br)c21 [Tetrabromophthalic anhydride]")
"> 90 µM"
>>> observed_measurement("CC(=O)c1cccc([N+](=O)[O-])c1")
"> 90 µM"

Go through the items and report each one's CC50 at 24 h.
1. c1ccc(CC2=NCCN2)cc1 [Tolazoline hydrochloride]
2. CC(C)=CCC/C(C)=C/CO
3. CC(=O)Nc1c(I)c(C(=O)N[C@H]2C(O)O[C@H](CO)[C@@H](O)[C@@H]2O)c(I)c(N(C)C(C)=O)c1I (stereo partly shown) [Metrizamide]
4. Nc1ncnc2c1ncn2[C@H]1CC[C@@H](CO)O1

["> 20 µM", "> 90 µM", "> 20 µM", "> 90 µM"]

Batch: CC50 at 24 h for all items listed.
1. CC(=O)Nc1ccc(S(N)(=O)=O)cc1 [4'-Sulfamylacetanilide]
2. CC1=NN(c2cc(S(=O)(=O)O)ccc2Cl)C(=O)C1N=Nc1ccccc1 (stereo not shown) [C.I. Acid Yellow 34, monosodium salt]
3. CCCC(=O)N1CCCN(c2nc(N)c3cc(OC)c(OC)cc3n2)CC1 [Bunazosin hydrochloride]

> 90 µM
92.1 µM
> 50 µM

For each listed entry, give its CC50 at 24 h.
1. O=C1CC[C@@]2(O)[C@H]3Cc4ccc(O)c5c4[C@@]2(CCN3CC2CC2)[C@H]1O5 [Naltrexone]
2. CC(C)(C)c1cc(/C=C2\SC(N)=NC2=O)cc(C(C)(C)C)c1O [Darbufelone mesylate]
3. CNNCc1ccc(C(=O)NC(C)C)cc1 [Procarbazine hydrochloride]
4. O=C(O)COc1ccc(Cl)cc1
5. Nc1ncc([N+](=O)[O-])s1
6. CC(=O)N[C@@H](CC(C)C)C(=O)O

1: > 50 µM; 2: 23.6 µM; 3: > 50 µM; 4: > 90 µM; 5: > 90 µM; 6: > 50 µM

Record request: CC50 at 24 h value, item CCCCCCCCCCCCCCCCCCOCCO
> 20 µM
